Numbers sourced from patent US20240366589A1.

# Test system: phosphorus and calcium levels in the urine of rats
# ASSAY REMARKS: Urinary excretion of phosphate and calcium in rats (16 h overnight urine)
# Type: in vivo, rat
# RUN PARAMETERS: rats, oral gavage, dose 10 mg/kg, 16 h post-dose
Entries whose Urine P % of control is below 80% take Satisfied; entries at or above 80% take Not satisfied.

[[record]]
compound = "NCCOCCOCCNS(=O)(=O)c1ccc(O[C@H]2c3cc(Cl)cc(Cl)c3C[C@@H]2N2CCCCC2)cc1 [compound 62]"
test_target = "phosphorus and calcium levels in the urine of rats"
answer_label = "Satisfied"

[[record]]
compound = "CN(C)[C@H]1Cc2c(Cl)cc(Cl)cc2[C@@H]1Oc1ccc(S(=O)(=O)NCCOCCOCCNC(=O)[C@H](O)[C@@H](O)C(=O)NCCOCCOCCNS(=O)(=O)c2ccc(O[C@H]3c4cc(Cl)cc(Cl)c4C[C@@H]3N(C)C)cc2)cc1 [compound 150]"
test_target = "phosphorus and calcium levels in the urine of rats"
answer_label = "Not satisfied"

[[record]]
compound = "O=C(NCCCCNC(=O)NCCOCCOCCNS(=O)(=O)c1ccc(O[C@H]2c3cc(Cl)cc(F)c3C[C@@H]2N2CC[C@@H](O)C2)cc1)NCCOCCOCCNS(=O)(=O)c1ccc(O[C@H]2c3cc(Cl)cc(F)c3C[C@@H]2N2CC[C@@H](O)C2)cc1 [compound 165]"
test_target = "phosphorus and calcium levels in the urine of rats"
answer_label = "Satisfied"

[[record]]
compound = "CN1Cc2c(Cl)cc(Cl)cc2[C@H](c2cccc(S(=O)(=O)NCCOCCOCCNC(=O)NCCCN(CCCNC(=O)NCCOCCOCCNS(=O)(=O)c3cccc([C@@H]4CN(C)Cc5c(Cl)cc(Cl)cc54)c3)CCCNC(=O)NCCOCCOCCNS(=O)(=O)c3cccc([C@@H]4CN(C)Cc5c(Cl)cc(Cl)cc54)c3)c2)C1 [compound 77]"
test_target = "phosphorus and calcium levels in the urine of rats"
answer_label = "Satisfied"

[[record]]
compound = "CN1Cc2c(Cl)cc(Cl)cc2[C@H](c2cccc(S(=O)(=O)NCCOCCOCCNC(=O)NCCN(CCNC(=O)NCCOCCOCCNS(=O)(=O)c3cccc([C@@H]4CN(C)Cc5c(Cl)cc(Cl)cc54)c3)CCNC(=O)NCCOCCOCCNS(=O)(=O)c3cccc([C@@H]4CN(C)Cc5c(Cl)cc(Cl)cc54)c3)c2)C1 [compound 76]"
test_target = "phosphorus and calcium levels in the urine of rats"
answer_label = "Satisfied"


Is Urine P % of control strictly under 80% for the entry CN1Cc2c(Cl)cc(Cl)cc2[C@H](c2cccc(S(=O)(=O)NCCOCCOCCOCCNC(=O)CN(CC(=O)NCCOCCOCCOCCNS(=O)(=O)c3cccc([C@@H]4CN(C)Cc5c(Cl)cc(Cl)cc54)c3)[C@@H]3CCCC[C@H]3N(CC(=O)NCCOCCOCCOCCNS(=O)(=O)c3cccc([C@@H]4CN(C)Cc5c(Cl)cc(Cl)cc54)c3)CC(=O)NCCOCCOCCOCNS(=O)(=O)c3cccc([C@@H]4CN(C)Cc5c(Cl)cc(Cl)cc54)c3)c2)C1 [compound 71] ?
Satisfied

Is Urine P % of control strictly under 80% for the entry CN(C)[C@H]1Cc2c(Cl)cc(Cl)cc2[C@@H]1Oc1ccc(S(=O)(=O)NCCOCCOCCNC(=O)C(C)(C)C(=O)NCCOCCOCCNS(=O)(=O)c2ccc(O[C@H]3c4cc(Cl)cc(Cl)c4C[C@@H]3N(C)C)cc2)cc1 [compound 151] ?
Not satisfied
